Data credit: patent US11925650B2

Test system: S. Typhimurium 14028
EXPERIMENTAL_DETAILS: Anti-intracellular Salmonella activity in infected RAW264.7 cells (HCA)
Assay type: cell-based, Salmonella Typhimurium
CONDITION_PARAMETERS: read-out: EC50 (μM) S. Typhimurium 14028; intracellular Salmonella in infected RAW264.7 cells
PARAMETER: EC50 (µM)

> print(dat)
                                       smi  parameter  unit.of.measurement  obs.value
1  Clc1ccc2c(c1)C(NCCN1CCNCC1)=Nc1ccccc1O2       EC50                   µM        0.4

###

System: S. Typhimurium 14028
EXPERIMENTAL_DETAILS: Anti-intracellular Salmonella activity in infected RAW264.7 cells (HCA)
Format: cell-based, Salmonella Typhimurium
CONDITION_PARAMETERS: IC50 RAW264.7 / EC50 S. Typhimurium 14028
Selectivity ratio (IC50/EC50) vs 10: at or above is class 1, below is class 0.

> print(dat)
                                    compound  class.assignment
 1  CN(C)CCNC1=Nc2ccccc2Oc2ccc(Cl)cc21 [SW1]           class 0
 2  Clc1ccc2c(c1)C(NCCN1CCCC1)=Nc1cccnc1N2 [SW28]           class 0
 3  Clc1ccc2c(c1)C(NCCCN1CCCC1)=Nc1cccnc1N2 [SW29]           class 1
 4  CN1CCCC1CCNC1=Nc2cccnc2Nc2ccc(Cl)cc21 (stereo not shown) [SW25]           class 1
 5  Clc1ccc2c(c1)C(NCCN1CCOCC1)=Nc1ccccc1O2 [SW4]           class 0
 6  Clc1ccc2c(c1)C(NCC1CC1)=Nc1ccccc1O2 [SW11]           class 0
 7  Clc1ccc2c(c1)C(NCCc1ccccc1)=Nc1ccccc1O2 [SW7]           class 0
 8  Clc1ccc2c(c1)C(NCc1ccccc1)=Nc1ccccc1O2 [SW9]           class 0
 9  CCC(CC)NC1=Nc2ccccc2Oc2ccc(Cl)cc21 [SW17]           class 0
10  Fc1ccc(CCNC2=Nc3ccccc3Oc3ccc(Cl)cc32)cc1 [SW19]           class 0
11  Clc1ccc2c(c1)C(NCCN1CCCCC1)=Nc1ccccc1O2 [SW3]           class 0
12  Cc1cc2c(s1)Nc1ccccc1N=C2NCCN1CCNCC1 [SW41]           class 1
13  Clc1ccc2c(c1)C(NCCN1CCCCC1)=Nc1cccnc1N2 [SW21]           class 1
14  CN1CCCC1CCNC1=Nc2ccccc2Oc2ccc(Cl)cc21 (stereo not shown) [SW6]           class 1
15  Cc1cc2c(s1)Nc1ccccc1N=C2NCCCN(C)C [SW43]           class 1
16  Clc1ccc2c(c1)C(NCCCN1CCCC1)=Nc1ccccc1O2 [SW22]           class 1
17  Oc1ccc(CCNC2=Nc3ccccc3Oc3ccc(Cl)cc32)cc1 [SW12]           class 0
18  Cc1cc2c(s1)Nc1ccccc1N=C2NCCCN1CCCC1 [SW42]           class 1
19  Clc1ccc(CCNC2=Nc3ccccc3Oc3ccc(Cl)cc32)cc1 [SW20]           class 0
20  Clc1ccc2c(c1)C(NCCN1CCCC1)=Nc1ccccc1O2 [SW2]           class 0
21    CCCCCNC1=Nc2ccccc2Oc2ccc(Cl)cc21 [SW8]           class 0
22  Clc1ccc2c(c1)C(NCCCN1CCCCC1)=Nc1ccccc1O2 [SW26]           class 1

###

As shown below, each of these compounds has a reported MIC value.
System: Salmonella Typhimurium ATCC 14028
EXPERIMENTAL_DETAILS: MIC of antibiotics, strain ATCC 14028
Type: cell-based
CONDITION_PARAMETERS: Salmonella enterica; Table 5; read-out: MIC ATCC 14028
PARAMETER: MIC (µg/mL)

SMI	OBS_VALUE
O=C(N[C@H](CO)[C@H](O)c1ccc([N+](=O)[O-])cc1)C(Cl)Cl	16
[H]/N=C(/N)N[C@H]1[C@H](O)[C@@H](O)[C@H](O[C@@H]2O[C@@H](C)[C@](O)(C=O)[C@H]2O[C@@H]2O[C@@H](CO)[C@H](O)[C@@H](O)[C@@H]2NC)[C@@H](N/C(N)=N\[H])[C@@H]1O	32
CC1(C)S[C@@H]2[C@H](NC(=O)[C@H](N)c3ccccc3)C(=O)N2[C@H]1C(=O)O	16
CN(C)[C@@H]1C(O)=C(C(N)=O)C(=O)[C@@]2(O)C(O)=C3C(=O)c4c(O)cccc4[C@@](C)(O)[C@H]3C[C@@H]12	8

###

Tested on: RAW264.7
EXPERIMENTAL_DETAILS: Cytotoxicity in RAW264.7 cells (HCA, MTT cell viability assay)
Format: cell-based
CONDITION_PARAMETERS: Mus musculus; cytotoxicity, RAW264.7 cells; read-out: IC50 (μM) RAW264.7
PARAMETER: IC50 (µM)

> print(dat)
                                   compound  parameter  comparison.symbol  obs.value
1  Clc1ccc2c(c1)C(NCCCN1CCCCC1)=Nc1cccnc1N2       IC50                  =        105
2   Clc1ccc2c(c1)C(NCCN1CCCCC1)=Nc1cccnc1N2       IC50                  =       63.6
3  CN1CCCC1CCNC1=Nc2cccnc2Nc2ccc(Cl)cc21 (stereo not shown)       IC50                  =       85.5
4        CN(C)CCNC1=Nc2cccnc2Nc2ccc(Cl)cc21       IC50                  >         90
5  CN1CCN(CCCNC2=Nc3cccnc3Nc3ccc(Cl)cc32)CC1       IC50                  =        129
6    Clc1ccc2c(c1)C(NCCN1CCCC1)=Nc1cccnc1N2       IC50                  =       63.2
7   Clc1ccc2c(c1)C(NCCCN1CCCC1)=Nc1cccnc1N2       IC50                  =        101

###

Test system: Salmonella Typhimurium 0911R
EXPERIMENTAL_DETAILS: MIC of antibiotics, multidrug-resistant isolate 0911R
Format: cell-based
CONDITION_PARAMETERS: Salmonella enterica, TYPHIMURIUM; Table 5

SMI	MIC
[H]/N=C(/N)N[C@H]1[C@H](O)[C@@H](O)[C@H](O[C@@H]2O[C@@H](C)[C@](O)(C=O)[C@H]2O[C@@H]2O[C@@H](CO)[C@H](O)[C@@H](O)[C@@H]2NC)[C@@H](N/C(N)=N\[H])[C@@H]1O	> 64 µg/mL
CC1(C)S[C@@H]2[C@H](NC(=O)[C@H](N)c3ccccc3)C(=O)N2[C@H]1C(=O)O	> 64 µg/mL
CN(C)[C@@H]1C(O)=C(C(N)=O)C(=O)[C@@]2(O)C(O)=C3C(=O)c4c(O)cccc4[C@@](C)(O)[C@H]3C[C@@H]12	> 64 µg/mL
O=C(N[C@H](CO)[C@H](O)c1ccc([N+](=O)[O-])cc1)C(Cl)Cl	32 µg/mL

###

System: S. Typhimurium 14028
EXPERIMENTAL_DETAILS: Anti-intracellular Salmonella activity in infected RAW264.7 cells (HCA)
Format: cell-based, Salmonella Typhimurium
CONDITION_PARAMETERS: IC50 RAW264.7 / EC50 S. Typhimurium 14028
PARAMETER: Selectivity ratio (IC50/EC50)

> print(dat)
                                   compound  comparison.symbol  obs.value
1  Clc1ccc2c(c1)C(NCCc1cccnc1)=Nc1ccccc1O2 [SW5]                  =        1.9
2  Clc1ccc2c(c1)C(NCCc1ccncc1)=Nc1ccccc1O2 [SW16]                  =        2.8
3  CN(C)CCNC1=Nc2cccnc2Nc2ccc(Cl)cc21 [SW27]                  >       13.9
4  O=C1CCCN1CCCNC1=Nc2ccccc2Oc2ccc(Cl)cc21 [SW23]                  >        1.3
5  Clc1ccc2c(c1)C(NCCCN1CCCCC1)=Nc1cccnc1N2 [SW32]                  =       16.4

###

Tested on: S. Typhimurium 14028
EXPERIMENTAL_DETAILS: Anti-intracellular Salmonella activity in infected RAW264.7 cells (HCA)
Type: cell-based, Salmonella Typhimurium
CONDITION_PARAMETERS: IC50 RAW264.7 / EC50 S. Typhimurium 14028
PARAMETER: Selectivity ratio (IC50/EC50)

> print(dat)
                                     smi                      parameter  obs.value
1    Cc1cc2c(s1)Nc1ccccc1N=C2NCCN1CCCCC1  Selectivity ratio (IC50/EC50)       22.4
2       Cc1cc2c(s1)Nc1ccccc1N=C2NCCN(C)C  Selectivity ratio (IC50/EC50)       72.5
3  c1ccc2c(c1)N=C(NCCCN1CCCC1)c1ccccc1N2  Selectivity ratio (IC50/EC50)      213.4
4  c1ccc2c(c1)N=C(NCCN1CCCCC1)c1ccccc1N2  Selectivity ratio (IC50/EC50)       29.3
5         CCCNC1=Nc2ccccc2Oc2ccc(Cl)cc21  Selectivity ratio (IC50/EC50)        2.0
